Test system: Mycobacterium tuberculosis H37Rv
assay_name: Antibacterial activity against Mycobacterium tuberculosis H37Rv expressing GFP infected in mouse Raw264.7 cells incubated for 5 days by SYTO 60 staining method
Type: functional, Mycobacterium tuberculosis variant bovis
recorded_conditions: 120 h, time 5 day
endpoint_label: log10 of MIC50 (log10 of the value in µM)
Please interpret these as log10 of MIC50 where MIC50 is in µM.

These recorded examples may help you get a feel for the data.
smiles_entry	log10 of MIC50
CCCCCCCCCC[C@@H]1CC[P@@](=O)(OC)OC(C)=C1C(=O)OC	0.65
CC(C)COc1nn(-c2ccccc2)c(=O)o1	1.23
CO[C@H]1/C=C/O[C@@]2(C)Oc3c(C)c(O)c4c(O)c(c(/C=N/N5CCN(C)CC5)c(O)c4c3C2=O)NC(=O)/C(C)=C\C=C\[C@H](C)[C@H](O)[C@@H](C)[C@@H](O)[C@@H](C)[C@H](OC(C)=O)[C@@H]1C	0.46
NNC(=O)c1ccncc1	0.08
CCCCCCCCCC[C@H]1CC[P@@](=O)(OC)OC(C)=C1C(=O)OC	0.49
O=c1oc(OCCOCc2ccccc2)nn1-c1ccc(Oc2ccccc2)cc1	0.54
CCCCCCCCCCCC[C@@H]1CC[P@@](=O)(OC)OC(C)=C1C(=O)OC	0.60
CC(C)COc1nn(-c2ccc(Oc3ccccc3)cc2)c(=O)o1	0.93

Next item in the queue.
Request: Looking for the measured log10 of MIC50 of CCCCCCOc1nn(-c2ccc(Oc3ccccc3)cc2)c(=O)o1 , can you help?
Result: 0.98
